Reported chromatographic logP values follow for various molecules
experiment: logP by HPLC on reversed-phase column (C 18), EEC Directive 79/B31 Annex V.A8, methods A and B; assay type: physicochemical; details: reversed-phase HPLC column (C 18), LogP method B: HPLC reversed-phase C 18, 40° C., 0.1% aqueous formic acid / acetonitrile, linear gradient 10% to 90% acetonitrile
Enter a number only.

Cc1cnn(C)c1C(=O)N(C1CC1)S(=O)(=O)c1ccc(Oc2ccc(Br)cc2)cc1 [Compound 661] yielded chromatographic logP of 4.2

CCOc1nn(C)cc1C(=O)N(C1CC1)S(=O)(=O)c1ccc(Oc2ccc(C)nc2)cc1Br [Compound 526] yielded chromatographic logP of 2.3

COc1nn(C)cc1C(=O)N(C1CC1)S(=O)(=O)c1ccc(Oc2cccc(Br)c2)cc1Br [Compound 473] yielded chromatographic logP of 3.8

Cc1cnn(C)c1C(=O)N(C1CC1)S(=O)(=O)c1ccc(O)c(O)c1O [Compound 659] yielded chromatographic logP of 3.6

COc1nn(C)cc1C(=O)N(C1CC1)S(=O)(=O)c1ccc(Oc2cccc(C(F)(F)F)c2)cc1Br [Compound 472] yielded chromatographic logP of 3.8

COc1nn(C)cc1C(=O)N(C1CC1)S(=O)(=O)c1ccc(Oc2ccc(Br)c(O)c2)cc1Br [Compound 480] yielded chromatographic logP of 4.2

O=C(c1cccnc1O)N(C1CC1)S(=O)(=O)c1cccc(O)c1O [Compound 645] yielded chromatographic logP of 3.2

O=C(c1cccnc1O)N(C1CC1)S(=O)(=O)c1ccc(Oc2ccccc2)cc1 [Compound 646] yielded chromatographic logP of 3.7

---

experiment: logP by HPLC on reversed-phase column (C 18), EEC Directive 79/B31 Annex V.A8, methods A and B; assay type: physicochemical; conditions: reversed-phase HPLC column (C 18), LogP method B: HPLC reversed-phase C 18, 40° C., 0.1% aqueous formic acid / acetonitrile, linear gradient 10% to 90% acetonitrile
attribute-measured: chromatographic logP
Enter a number only.

> print(dat)
                                   compound    attribute.measured  quantitative.readout
1  CCOc1nn(C)cc1C(=O)N(C1CC1)S(=O)(=O)c1ccc(Oc2cccc(N(C)C)c2)c(O)c1 [Compound 539]  chromatographic logP                   4.1
2  CCOc1nn(C)cc1C(=O)N(C1CC1)S(=O)(=O)c1ccc(Oc2cccc(O)c2)c(O)c1 [Compound 546]  chromatographic logP                   4.3
3  COc1nn(C)cc1C(=O)N(C1CC1)S(=O)(=O)c1ccc(Oc2ccc(Br)cc2)cc1Br [Compound 474]  chromatographic logP                   3.9

COc1nn(C)cc1C(=O)N(C1CC1)S(=O)(=O)c1ccc(Oc2ccc(Cl)cc2)cc1Br [Compound 469] yielded chromatographic logP of 3.8

Cc1nocc1C(=O)N(C1CC1)S(=O)(=O)c1ccc(Oc2ccc(Br)cc2)cc1 [Compound 602] yielded chromatographic logP of 4.2

Cc1oncc1C(=O)N(C1CC1)S(=O)(=O)c1ccc(Oc2ccc(Br)cc2)cc1 [Compound 605] yielded chromatographic logP of 3.4

---

Test: logP by HPLC on reversed-phase column (C 18), EEC Directive 79/B31 Annex V.A8, methods A and B
Type: physicochemical
Conditions: reversed-phase HPLC column (C 18), LogP method B: HPLC reversed-phase C 18, 40° C., 0.1% aqueous formic acid / acetonitrile, linear gradient 10% to 90% acetonitrile
Experimental: Calibration was carried out using unbranched alkan-2-ones (having 3 to 16 carbon atoms) with known logP values (determination of the logP values by the retention times using linear interpolation between two successive alkanones).
attribute-measured: chromatographic logP
Enter a number only.

Look over these answered cases.
> print(dat)
                                   compound  quantitative.readout
1  CCOc1nn(C)cc1C(=O)N(C1CC1)S(=O)(=O)c1ccc(Oc2ccc(Cl)c(C(F)(F)F)c2)cc1Br                   4.5
2  Cc1cnn(C)c1C(=O)N(C1CC1)S(=O)(=O)c1cccc(O)c1O                   3.1
3  CCOc1nn(C)cc1C(=O)N(C1CC1)S(=O)(=O)c1ccc(Oc2ccc(O)cc2)c(O)c1                   4.3
4  CCOc1nn(C)cc1C(=O)N(C1CC1)S(=O)(=O)c1ccc(Oc2ccc(Cl)c(Cl)c2)c(Cl)c1                   4.8
5  COc1nn(C)cc1C(=O)N(C1CC1)S(=O)(=O)c1ccccc1C(F)(F)F                   2.3
6  CCOc1nn(C)cc1C(=O)N(C1CC1)S(=O)(=O)c1ccc(Oc2ccc(OC)cc2)cc1O                   3.5
7  CCOc1nn(C)cc1C(=O)N(C1CC1)S(=O)(=O)c1ccc(Oc2ccc(Br)c(O)c2)c(Cl)c1                   4.9
8  COc1ccc(Oc2ccc(S(=O)(=O)N(C(=O)c3cn(C)nc3OC)C3CC3)c(Br)c2)cc1                   3.3

`CCOc1nn(C)cc1C(=O)N(C1CC1)S(=O)(=O)c1ccc(Oc2ccccc2)cc1O` yielded chromatographic logP of 3.6

`CCOc1nn(C)cc1C(=O)N(C1CC1)S(=O)(=O)c1ccc(Oc2ccc(F)c(O)c2)c(O)c1` yielded chromatographic logP of 4.4

`CCc1nn(C)c(F)c1C(=O)N(C1CC1)S(=O)(=O)c1c(O)sc(O)c1O` yielded chromatographic logP of 3.85

`CCOc1nn(C)cc1C(=O)N(C1CC1)S(=O)(=O)c1ccc(Oc2ccc(C(F)(F)F)cc2)c(Br)c1` yielded chromatographic logP of 4.4

`COc1nn(C)cc1C(=O)N(C1CC1)S(=O)(=O)c1ccc(Oc2cccc(OC(F)(F)F)c2)cc1Br` yielded chromatographic logP of 4

CCOc1nn(C)cc1C(=O)N(C1CC1)S(=O)(=O)C1C=CC(Oc2ccc(F)c(O)c2)=CC1O (centres unmarked) yielded chromatographic logP of 4

`COc1ccc(Oc2ccc(S(=O)(=O)N(C(=O)c3cn(C)nc3OC)C3CC3)c(Br)c2)cc1OC` yielded chromatographic logP of 2.9

`Cc1nocc1C(=O)N(C1CC1)S(=O)(=O)c1cccc(O)c1O` yielded chromatographic logP of 3

`CCCCCc1ccc(Oc2ccc(S(=O)(=O)N(C(=O)c3cn(C)nc3OCC)C3CC3)c(Br)c2)cc1` yielded chromatographic logP of 5.6

`Cn1ncc(I)c1C(=O)N(C1CC1)S(=O)(=O)c1cccc(O)c1O` yielded chromatographic logP of 2.8

`COc1nn(C)cc1C(=O)N(C1CC1)S(=O)(=O)c1ccc(Oc2ccc(C)c(O)c2)cc1Br` yielded chromatographic logP of 3.8

`CCc1nn(C)c(F)c1C(=O)N(C1CC1)S(=O)(=O)c1cnc(O)c(Br)c1` yielded chromatographic logP of 3.5
